Values were extracted from PubChem BioAssay.

- System: Wnt5a (protein binding on small-molecule microarray)
- assay summary: Wnt5a binders on small-molecule microarray, primary screen, biophysical, 635/667 nm fluorescence (AID 1142);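 further: fluorescence read at 667 nm with signal to noise per printed feature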
- measurement context: 635 nm fluorescence, higher = more signal
assay readout: composite z-score
Answer with a number only.

Examples from the recorded data:
[[record]]
compound = "COc1ccc(O[C@H]2C=C[C@@H](c3ccccc3)O[C@@H]2COC(=O)CCC(C)=NO[C@@H]2O[C@H](COC(C)=O)[C@@H](OC(C)=O)[C@H](OC(C)=O)[C@H]2OC(C)=O)cc1"
test_value = 0.0276

[[record]]
compound = "COC(=O)CC=C[C@@H](C)[C@@H](C=NOC[C@H]1O[C@H](c2ccccc2)C=C[C@@H]1Oc1ccc(OC)cc1)NS(=O)(=O)c1ccc(C)cc1"
test_value = -0.308

[[record]]
compound = "C=COC[C@@H]1CN2[C@@H](CC[C@@H](C)[C@@H]2c2ccc(Br)cc2)C(=O)O1"
test_value = -0.219


Q: Report composite z-score for "CO[C@H]1COC(=O)[C@H](C)NC(=O)CC=C[C@@H](C)[C@H](OC)COC(=O)[C@@H](OCc2ccccc2)C=C[C@@H]1C" please.
A: -0.0911

Q: Sample "CON=C[C@@H](NS(=O)(=O)c1ccc(C)cc1)[C@H](C)C=CCC(=O)OC" — what was its composite z-score?
A: 0.0181

Q: Would you mind telling me what composite z-score value was observed for "CO[C@H]1COC(=O)[C@@H](C)COC(=O)[C@H](COCc2ccccc2)NC(=O)CC=C[C@H]1C" ?
A: -0.171

Q: What composite z-score value was documented for this compound, CC(C)C[C@H](NC(=O)CCC1CC(OC(=O)NCc2cccc3ccccc23)CC2(CCCC(COC(=O)NCc3ccccc3)O2)O1)C(=O)NCC(c1ccccc1)c1ccccc1 (stereo not given in full) ?
A: 0.451

Q: Would you kindly share the measured composite z-score for "CCCNC(=O)OC[C@H]1O[C@H](CCON=C(C)CCN2CCCc3nc(C)c(C)cc32)C=C[C@@H]1Oc1ccc(OC)cc1" ?
A: 0.146

Q: Which composite z-score value is on record for "O=c1n(Cc2cc3c(cc2Cl)OCO3)c(=O)n2n1CC[C@@H]1C(=NOCc3ccccc3)[C@H]3O[C@H]3[C@@H](O)[C@@H]12" ?
A: 0.141
